Some molecules, each annotated with its measured growth.
- System: NCI-H23 lung
- Measurement Notes: NCI-60 one-dose screen, 48 h (100 = growth as untreated, 0 = no growth, -100 = all killed)
- Measurement Conditions: 10 µM unless noted
About 83,000 compounds went through this panel and 20% of them were active in at least one assay; those are over-represented in the sample as a whole. Active and inactive are the calls of the source. Rule for the calls: active = growth percent below 10; inactive = the rest.

Please review the following examples before continuing.
> print(dat)
                                   molecule            result
1  COc1ccc(NC(=O)CSc2nc3ccccc3c(=O)n2Cc2cc(OC)c(OC)c(OC)c2)cc1  92.5% (inactive)
2  COc1ccc(/C(=N/O)c2cc(OC)c(OC)c(OC)c2)c(OC)c1N  51.9% (inactive)
3  O=C(CSc1nc(-c2ccc(Cl)cc2)cn1-c1ccc(Cl)cc1)c1ccc(Br)cc1  77.1% (inactive)
4  Cc1cc(Nc2nc(-c3ccc(F)cc3)nc3ccccc23)n[nH]1  57.3% (inactive)
5  C=C1C(=O)O[C@H]2[C@H]1CC/C(Cn1cc(-c3ccsc3)nn1)=C\CC[C@@]1(C)O[C@@H]21   -14.9% (active)

Specify growth for "COc1cc(-c2cc(/C=C3\CCCCC3=O)[nH]n2)cc(OC)c1OC" and stop.
95.5% (inactive)

Return growth for the following molecule: "O=C(CNC1CCCCC1)Nc1ccc(-c2nc3ccccc3s2)cc1"
76.2% (inactive)

Name the recorded growth of the item "O=C1c2ccccc2C(=O)c2c(N=Nc3sc(=O)[nH]c3S)cccc21" in your answer.
96.3% (inactive)

Tell me measured growth for "CCN(Cc1ccc(CN(CC)C(=O)C(Cl)(Cl)Cl)cc1)C(=O)C(Cl)(Cl)Cl" please.
67.6% (inactive)

Tell me measured growth for "Nc1c(C(=O)Nc2cccc(Cl)c2Cl)sc2nc3c(cc12)C(=O)CCC3" please.
76.1% (inactive)

Read off the recorded growth for "COc1cccc(/C=C2\SC(N3CCN(c4ccccn4)CC3)=NC2=O)c1"
95.5% (inactive)

Given the molecule "Cc1cc2c(C(C)C)c(O)c(O)c(C=NCCCCC(=O)O)c2c(O)c1-c1c(C)cc2c(C(C)C)c(O)c(O)c(C=NCCCCC(=O)O)c2c1O" , write its reported growth.
33.8% (inactive)

Item "CCOC(=O)/C=C\C(=O)NC(N)=O" : provide growth
102% (inactive)

Given "NC(N)=NC(N)=Nc1ccccc1-c1ccccc1" , respond with its growth.
100% (inactive)

For the molecule "Cc1ccc2nc(SCn3nnc4ccccc4c3=O)[nH]c2c1" , give its reported growth.
100% (inactive)

Determine from records and report growth for "NCCSC(c1ccccc1)(c1ccccc1)c1ccccc1"
25.1% (inactive)

Item "Clc1nc(-c2cccnc2)nc2sc3c(c12)CCCCCC3" : provide growth
99.5% (inactive)

Look up growth of "CCOP(=O)(CCN1CCN(CCCCCOc2cc3c(cc2OC)C(=O)N2CCC[C@H]2C=N3)CC1)OCC" and report it.
104% (inactive)

Give the reported growth for this molecule. "Cc1cc(C(=O)CSc2nc3ccccc3c(=O)[nH]2)c(C)n1C"
97.7% (inactive)

Provide only the value of recorded growth for "CC(C)(C)c1cn2cccc(C(=O)N3CCN(CC(=O)Nc4ccc(Cl)cc4C(=O)c4ccccc4Cl)CC3)c2n1"
60.6% (inactive)

Specify reported growth for the molecule shown: "O=C(N/N=C/c1c(Cl)cccc1Cl)c1ccccc1Nc1ccnc(C(F)(F)F)c1"
46% (inactive)

Please report the measured growth for "CC/C=C\C/C=C\C[C@H](O)C/C=C1/C(=O)C=C[C@H]1C/C=C\CCC(=O)OC"
54.3% [8.25 µM] (inactive)
